Test: in vivo
Details: nude (Taconic), mouse, in vivo, iv, 28 uCi, total radioactivity, % ID/g Lung
measured.metric: tissue uptake at 3 h (%ID/g)

molecule="NC(=O)[C@@H](CCCCNC(=O)CNC(=O)CCC(=O)NCCc1c[nH]cn1)NC(=O)[C@@H](Cc1ccc(O)cc1)NC(=O)[C@@H](CCCCNC(=O)CNC(=O)CCC(=O)NCCc1c[nH]cn1)NC(=O)Cc1ccc(CN2CCN(CC(=O)O)CCN(CC(=O)O)CC2)cc1 [Al^18F(IMP485)]" numeric_result=0.073

----------
Assay: Biodistribution of Al^18F(IMP485) alone or TF2 pretargeted
Conditions: nude, mouse, in vivo, iv, 28 uCi, total radioactivity, % ID/org Lg. Int., alone, 3 h post injection
measured.metric: tissue uptake dose at 3 h (%ID)

compound="NC(=O)[C@@H](CCCCNC(=O)CNC(=O)CCC(=O)NCCc1c[nH]cn1)NC(=O)[C@@H](Cc1ccc(O)cc1)NC(=O)[C@@H](CCCCNC(=O)CNC(=O)CCC(=O)NCCc1c[nH]cn1)NC(=O)Cc1ccc(CN2CCN(CC(=O)O)CCN(CC(=O)O)CC2)cc1 [Al^18F(IMP485)]" numeric_result=0.408

----------
Experiment: in vivo
Settings: Taconic nude, mouse, in vivo, iv, % ID/org Kidney
measured.metric: tissue uptake dose at 1 h (%ID)

compound="NC(=O)[C@@H](CCCCNC(=O)CNC(=O)CCC(=O)NCCc1c[nH]cn1)NC(=O)[C@@H](Cc1ccc(O)cc1)NC(=O)[C@@H](CCCCNC(=O)CNC(=O)CCC(=O)NCCc1c[nH]cn1)NC(=O)Cc1ccc(CN2CCN(CC(=O)O)CCN(CC(=O)O)CC2)cc1 [Al^18F(IMP485)]" numeric_result=0.444

----------
Experiment: in vivo
Details: nude (Taconic), mouse, in vivo, iv, total radioactivity, % ID/org Scapula
measured.metric: tissue uptake dose at 3 h (%ID)

molecule="NC(=O)[C@@H](CCCCNC(=O)CNC(=O)CCC(=O)NCCc1c[nH]cn1)NC(=O)[C@@H](Cc1ccc(O)cc1)NC(=O)[C@@H](CCCCNC(=O)CNC(=O)CCC(=O)NCCc1c[nH]cn1)NC(=O)Cc1ccc(CN2CCN(CC(=O)O)CCN(CC(=O)O)CC2)cc1 [Al^18F(IMP485)]" numeric_result=0.008

----------
Test: in vivo
Details: Taconic nude, mouse, in vivo, iv, % ID/g Lung
measured.metric: tissue uptake at 3 h

compound="NC(=O)[C@@H](CCCCNC(=O)CNC(=O)CCC(=O)NCCc1c[nH]cn1)NC(=O)[C@@H](Cc1ccc(O)cc1)NC(=O)[C@@H](CCCCNC(=O)CNC(=O)CCC(=O)NCCc1c[nH]cn1)NC(=O)Cc1ccc(CN2CCN(CC(=O)O)CCN(CC(=O)O)CC2)cc1 [Al^18F(IMP485)]" result="0.244 %ID/g"

----------
Assay: in vivo
Details: nude (Taconic), mouse, in vivo, iv, 28 uCi, total radioactivity, % ID/g Lg. Int.
measured.metric: tissue uptake at 1 h (%ID/g)

compound="NC(=O)[C@@H](CCCCNC(=O)CNC(=O)CCC(=O)NCCc1c[nH]cn1)NC(=O)[C@@H](Cc1ccc(O)cc1)NC(=O)[C@@H](CCCCNC(=O)CNC(=O)CCC(=O)NCCc1c[nH]cn1)NC(=O)Cc1ccc(CN2CCN(CC(=O)O)CCN(CC(=O)O)CC2)cc1 [Al^18F(IMP485)]" numeric_result=0.081
